Species on record: Homo sapiens
ASSAY EXPLANATION: Ratio of compound pIC50 to (4aR,4bS,6aS,7S,9aS,9bS,11aR)-N,N-diethyl-1,4a,6a-trimethyl-2-oxohexadecahydro-1H-indeno[5,4-f]quinoline-7-carboxamide pIC50 for human steroid 5alpha-reductase
MEASUREMENT TYPE: pIC50

* CCN(CC)C(=O)[C@H]1CC[C@H]2[C@@H]3CC[C@H]4N(C)C(=O)CC[C@]4(C)[C@H]3CC[C@]12C | 8
* CCN(CC)C(=O)CNC(=O)[C@H]1CC[C@H]2[C@@H]3CC[C@H]4N(C)C(=O)CC[C@]4(C)[C@H]3CC[C@]12C | 6.96
* CCC(C)C(=O)[C@H]1CC[C@H]2[C@@H]3CC[C@H]4NC(=O)CC[C@]4(C)[C@H]3CC[C@]12C (some centres not stated) | 7.4
* CCN(CC)C(=O)[C@H]1CC[C@H]2[C@@H]3CC[C@H]4N(C)C(=O)[C@@H](OC)C[C@]4(C)[C@H]3CC[C@]12C | 6.82
* CCCCCCCNC(=O)[C@H]1CC[C@H]2[C@@H]3CC[C@H]4NC(=O)CC[C@]4(C)[C@H]3CC[C@]12C | 7.62
* CCN(CC)C(=O)C[C@H]1CC[C@H]2[C@@H]3CC[C@H]4N(C)C(=O)CC[C@]4(C)[C@H]3CC[C@]12C | 7.7
* CN1C(=O)CC[C@]2(C)[C@H]3CC[C@]4(C)[C@@H](C(=O)SC(C)(C)C)CC[C@H]4[C@@H]3CC[C@@H]12 | 6.33

###

Species on record: Homo sapiens
ASSAY EXPLANATION: Ratio of compound IC50 to (4aR,4bS,6aS,7S,9aS,9bS,11aR)-N,N-diethyl-1,4a,6a-trimethyl-2-oxohexadecahydro-1H-indeno[5,4-f]quinoline-7-carboxamide IC50 for human steroid 5alpha-reductase
MEASUREMENT TYPE: Ratio IC50

• CC(C)NC(=O)[C@H]1CC[C@H]2[C@@H]3CC[C@H]4N(C)C(=O)CC[C@]4(C)[C@H]3CC[C@]12C = 4
• CC(C)CC(=O)[C@H]1CC[C@H]2[C@@H]3CC[C@H]4N(C)C(=O)CC[C@]4(C)[C@H]3CC[C@]12C = 2.7
• CNC(=O)[C@H]1CC[C@H]2[C@@H]3CC[C@H]4N(C)C(=O)CC[C@]4(C)[C@H]3CC[C@]12C = 28
• CCNC(=O)[C@H]1CC[C@H]2[C@@H]3CC[C@H]4N(C)C(=O)CC[C@]4(C)[C@H]3CC[C@]12C = 9.4
• CN1C(=O)CC[C@]2(C)[C@H]3CC[C@]4(C)[C@@H](C5=NC(C)(C)CO5)CC[C@H]4[C@@H]3CC[C@@H]12 = 125

A: CC(=O)[C@H]1CC[C@H]2[C@@H]3CC[C@H]4N(C)C(=O)CC[C@]4(C)[C@H]3CC[C@]12C
B: CN1C(=O)CC[C@]2(C)[C@H]3CC[C@]4(C)[C@@H](C(=O)NC(C)(C)C)CC[C@H]4[C@@H]3CC[C@@H]12
C: CN1C(=O)CC[C@]2(C)[C@H]3CC[C@]4(C)[C@@H](C5=NCCO5)CC[C@H]4[C@@H]3CC[C@@H]12
D: CCN(CC)C(=O)[C@@H](C)[C@H]1CC[C@H]2[C@@H]3CC[C@H]4N(C)C(=O)CC[C@]4(C)[C@H]3CC[C@]12C
Prompt line: Put the items in order so that reported Ratio IC50 rises from first to last. Thanks in advance for listing the labels in the requested order.
Response line: B, C, A, D

P: CCN(CC)C(=O)[C@H]1CC[C@H]2[C@@H]3CC[C@H]4N(C)C(=O)C(OC)(OC)C[C@]4(C)[C@H]3CC[C@]12C
Q: C[C@H](CO)[C@H]1CC[C@H]2[C@@H]3CC[C@H]4N(C)C(=O)CC[C@]4(C)[C@H]3CC[C@]12C
Prompt line: Field: entry with larger Ratio IC50 (options P / Q ). Answer format: the label of the selected item.
Response line: P
(P: 28, Q: 15)

1: CN1C(=O)CC[C@]2(C)[C@H]3CC[C@]4(C)[C@@H](C(=O)NC(C)(C)CC(C)(C)C)CC[C@H]4[C@@H]3CC[C@@H]12
2: CCN(CC)C(=O)/C=C1/CC[C@H]2[C@@H]3CC[C@H]4N(C)C(=O)CC[C@]4(C)[C@H]3CC[C@]12C
3: COC(=O)[C@H]1CC[C@H]2[C@@H]3CC[C@H]4NC(=O)CC[C@]4(C)[C@H]3CC[C@]12C
4: CCN(CCO)C(=O)[C@H]1CC[C@H]2[C@@H]3CC[C@H]4N(C)C(=O)CC[C@]4(C)[C@H]3CC[C@]12C
Prompt line: // ranking: key=Ratio IC50, reverse=True Write the labels, ordered according to the request.
Response line: 3, 4, 2, 1
(3: 42, 4: 3, 2: 1.5, 1: 0.52)

###

Species: Homo sapiens
ASSAY EXPLANATION: Ratio of compound pIC50 to (4aR,4bS,6aS,7S,9aS,9bS,11aR)-N,N-diethyl-1,4a,6a-trimethyl-2-oxohexadecahydro-1H-indeno[5,4-f]quinoline-7-carboxamide pIC50 for human steroid 5alpha-reductase
MEASUREMENT TYPE: pIC50

* CCN(CC)C(=O)[C@H]1CC[C@H]2[C@@H]3CC[C@H]4N(C)C(=O)[C@@H]5O[C@@H]5[C@]4(C)[C@H]3CC[C@]12C | 6.2
* CNC(=O)[C@H]1CC[C@H]2[C@@H]3CC[C@H]4N(C)C(=O)CC[C@]4(C)[C@H]3CC[C@]12C | 6.55
* CC(C)(C)CC(C)(C)NC(=O)[C@H]1CC[C@H]2[C@@H]3CC[C@H]4NC(=O)CC[C@]4(C)[C@H]3CC[C@]12C | 8.25
* CCN(CC)C(=O)[C@H]1CC[C@H]2[C@@H]3CC[C@H]4N(C)C(=O)[C@@H](C)C[C@]4(C)[C@H]3CC[C@]12C | 7.44
* CC(C)(C)NC(=O)[C@H]1CC[C@H]2[C@@H]3CC[C@H]4NC(=O)CC[C@]4(C)[C@H]3CC[C@]12C | 7.77

1: CCN(CC)C(=O)[C@H]1CC[C@H]2[C@@H]3CC[C@H]4N(C)C(=O)[C@@H]5C[C@@H]5[C@]4(C)[C@H]3CC[C@]12C
2: C[C@]12CCC(=O)N[C@@H]1CC[C@@H]1[C@@H]2CC[C@@]2(C)[C@H]1CC[C@@]21CCCO1
Prompt line: Two entries are listed, 1 and 2 . Which one carries the higher pIC50? Answer by stating the label of the chosen item.
Response line: 1
(1: 7.89, 2: 5.13)

###

Organism: Homo sapiens
ASSAY EXPLANATION: Ratio of compound IC50 to (4aR,4bS,6aS,7S,9aS,9bS,11aR)-N,N-diethyl-1,4a,6a-trimethyl-2-oxohexadecahydro-1H-indeno[5,4-f]quinoline-7-carboxamide IC50 for human steroid 5alpha-reductase
MEASUREMENT TYPE: Ratio IC50

Observe how each entry below is paired with its result.
- C[C@]12CCC(=O)N[C@@H]1CC[C@@H]1[C@@H]2CC[C@@]2(C)[C@H]1CC[C@@]21CCCO1: 735
- CCN(CC)C(=O)[C@H]1CC[C@H]2[C@@H]3CC[C@H]4N(C)C(=O)C[C@H](C)[C@]4(C)[C@H]3CC[C@]12C: 7

a: CN1C(=O)CC[C@]2(C)[C@H]3CC[C@@]4(C)[C@@H](CC[C@@]45CCCO5)[C@@H]3CC[C@@H]12
b: CC(C)(C)NC(=O)[C@H]1CC[C@H]2[C@@H]3CC[C@H]4NC(=O)CC[C@]4(C)[C@H]3CC[C@]12C
Prompt line: Hey, which is lower on measured Ratio IC50, a or b ? Write the label of whichever entry you select.
Response line: b
(b: 1.7, a: 144)

###

Organism: Homo sapiens
ASSAY EXPLANATION: Ratio of compound pIC50 to (4aR,4bS,6aS,7S,9aS,9bS,11aR)-N,N-diethyl-1,4a,6a-trimethyl-2-oxohexadecahydro-1H-indeno[5,4-f]quinoline-7-carboxamide pIC50 for human steroid 5alpha-reductase
MEASUREMENT TYPE: pIC50

- CN1C(=O)CC[C@]2(C)[C@H]3CC[C@]4(C)[C@@H](C(=O)NC(C)(C)CO)CC[C@H]4[C@@H]3CC[C@@H]12: 7.7
- CCN(CC)C(=O)CC[C@@H](C)[C@H]1CC[C@H]2[C@@H]3CC[C@H]4N(C)C(=O)CC[C@]4(C)[C@H]3CC[C@]12C: 6.57
- CN1C(=O)CC[C@]2(C)[C@H]3CC[C@]4(C)[C@@H](C(=O)c5ccco5)CC[C@H]4[C@@H]3CC[C@@H]12: 7.7
- CCN(CC)C(=O)[C@H]1CC[C@H]2[C@@H]3CC[C@H]4N(C)C(=O)C[C@H](C)[C@]4(C)[C@H]3CC[C@]12C: 7.16
